Tested on: αvβ3 positive M21 Melanoma cells
procedure-details: Cell adhesion inhibition assay on vitronectin coated plates
Type: cell-based
applied-conditions: Homo sapiens; M21 cells on vitronectin coated plates; monomeric ligand; read-out: IC50 for inhibition of cell adhesion, free ligand
experimental-readout: IC50 (µM)
Numbers only, in µM.

Report IC50, nothing else, for this compound: NCCS(=O)(=O)N[C@@H](CNC(=O)c1ccc(OCCNC2=NCCCN2)cc1)C(=O)O
64
